molecular target: T1, Soluble CD28-Ig (human, UniProt P10747 19-152, biotin-conjugated (NHS-biotin) in the labelled-ligand FACS assays); assay: two-colour FACS profile on transfected cells; score of preference for CD28-Ig over CTLA-4-Ig vs WT hB7-1
T1 construct: extracellular domain; Bought from R&D Systems; also called sCD28-Ig; CD28-Ig Fc; not shown: Fc portion of human IgG1
measured metric: Binding Score

Round 2 CD28C2-4 (ligand) GISQVTKSVKEMAALSCDYNISIDELARMRIYWQKDQQMVLSIISGQVEVWPEYKNRTITDMNDNPRIVILALRLSDSGTYTCVIQKPVLKGAYKPEHLASVRLMIRADFPVPTINDLGNPSPNIRRLICSTSGGFPRPHLYWLENGEELNATNTTLSQDPETKLYMISSELDFNMTSNHSFLCLVKYGDLTVSQTFYWQESKPTPSANQHLTWTIIIPVSAFGISVIIAVILTCLTCRNAAIRRQRRENEVEMQSCSQSP ... 1
Round 2 CD28B4-5* (ligand) SGITPKSVTKRVKETVMLSCDYNTSTEELTSLRIYWQKDSKMVLAILPGKVQVWPEYKNRTITDMNDNPRIVILALRLSDKGTYTCVVQKPDLKGAYKLEHLASVRLMIRADFPVPSITDIGHPAPNVKRIRCSASGGFPEPRLAWMEDGEELNAVNTTVDQDLDTELYSVSSELDFNVTNNHSIVCLIKYGELSVSQIFPWSKPKQEPPIDQLPFWVIIPVSGALVLTAVVLYCLACRHVARWKRTRRNEETVGTERLSPIYLGSAQSSG ... 0
